Recorded values, source patent US8129355B2.

Biological target: Bombyx mori EcR (VP16 fusion, switch construct CVBE) with 6XEcRE LacZ reporter (Bombyx mori, UniProt P49881)
Construct: expressed in transfected cells; host or cells: Human 293 kidney (HEK-293) cells, retrovirally infected, clone Z3
Sequence (P49881 86-606 limits assumed): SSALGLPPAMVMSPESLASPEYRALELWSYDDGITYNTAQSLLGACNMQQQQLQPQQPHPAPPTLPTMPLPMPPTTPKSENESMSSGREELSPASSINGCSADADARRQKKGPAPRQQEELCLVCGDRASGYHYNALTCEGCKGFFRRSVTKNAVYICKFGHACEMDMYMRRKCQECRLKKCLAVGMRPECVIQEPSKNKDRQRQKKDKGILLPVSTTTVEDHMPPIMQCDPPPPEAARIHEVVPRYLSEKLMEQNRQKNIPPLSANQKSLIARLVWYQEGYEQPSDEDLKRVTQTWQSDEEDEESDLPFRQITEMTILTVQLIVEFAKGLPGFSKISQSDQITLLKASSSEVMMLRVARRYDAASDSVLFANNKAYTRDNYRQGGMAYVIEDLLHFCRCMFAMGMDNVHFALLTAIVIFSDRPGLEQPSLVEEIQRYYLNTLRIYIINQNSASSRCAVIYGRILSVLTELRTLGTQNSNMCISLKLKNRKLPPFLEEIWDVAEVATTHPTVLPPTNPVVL
Sequence (P19793 whole entry partner, the tested form may be a part): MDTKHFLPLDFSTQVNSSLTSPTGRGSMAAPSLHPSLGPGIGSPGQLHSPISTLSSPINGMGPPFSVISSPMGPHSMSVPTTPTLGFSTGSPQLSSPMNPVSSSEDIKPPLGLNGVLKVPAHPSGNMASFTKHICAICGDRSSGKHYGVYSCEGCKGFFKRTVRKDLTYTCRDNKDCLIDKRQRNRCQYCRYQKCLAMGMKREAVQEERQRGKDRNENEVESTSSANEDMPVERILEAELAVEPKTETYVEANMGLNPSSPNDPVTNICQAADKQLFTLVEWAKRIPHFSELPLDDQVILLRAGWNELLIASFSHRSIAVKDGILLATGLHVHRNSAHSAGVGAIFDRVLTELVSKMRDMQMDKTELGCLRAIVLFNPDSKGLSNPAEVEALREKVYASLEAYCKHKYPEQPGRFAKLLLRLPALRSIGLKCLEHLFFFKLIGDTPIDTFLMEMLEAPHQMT
Assay: Z3 assay: β-galactosidase (LacZ) reporter gene fold induction in stably transformed human 293 kidney cells (clone Z3)
Assay type: cell-based
Conditions: average; dose response, three-parameter logistic model; read-out: Z3 LC50
Method: Dr. F. Gage provided a population of stably transformed cells containing CVBE and 6XEcRE as described in Suhr, S. T., Gil, E. B., Senut M. C., Gage, F. H. (1998) Proc. Natl. Acad. Sci. USA 95, 7999-804. […] Dilution cloning was used to isolate individual clones. […] Individual clones were evaluated based on their response in the presence and absence of test ligands. […]
Attribute: CC50
measured.quantity: CC50 (µM)

molecule: CCC(CC)(NC(=O)c1cccc(OC)c1C)C(=O)c1ccc(F)cc1
limit.operator: =
recorded.number: 13.7

molecule: COc1cccc(C(=O)NC2(C(=O)c3cc(C)cc(C)c3)CCCCC2)c1C
limit.operator: =
recorded.number: 1.41

molecule: Cc1cc(C)cc(C(=O)C2(NC(=O)c3ccc4c(c3)OCCO4)CCCC2)c1
limit.operator: =
recorded.number: 5.49

molecule: CCC(CC)(NC(=O)c1cccc(OC)c1C)C(=O)c1ccccc1
limit.operator: >
recorded.number: 33

molecule: COc1cccc(C(=O)NC2(C(=O)c3cc(C)cc(C)c3)CCCCCC2)c1C
limit.operator: =
recorded.number: 1.61

molecule: COc1cccc(C(=O)NC(C)(C(=O)c2ccccc2C)C(C)C)c1C (stereo not drawn)
limit.operator: =
recorded.number: 17.9

molecule: CC(C)(NC(=O)c1ccc(Cl)cc1)C(=O)c1ccccc1
limit.operator: =
recorded.number: 0.82

molecule: CCC(CC)(NC(=O)c1cccc(OC)c1C)C(=O)c1ccc(C)cc1
limit.operator: =
recorded.number: 32.2

molecule: COc1cccc(C(=O)NC2(C(=O)c3ccccc3)CCCC2)c1C
limit.operator: =
recorded.number: 2.67

molecule: COc1cccc(C(=O)NC2(C(=O)c3ccccc3)CCCC2)c1
limit.operator: >
recorded.number: 33

molecule: COc1cc(C(=O)C2(NC(=O)c3cccc(OC)c3C)CCCC2)cc(OC)c1C
limit.operator: =
recorded.number: 8.84

molecule: Cc1cc(C)cc(C(=O)C2(NC(=O)c3ccc4c(c3C)OCO4)CCCC2)c1
limit.operator: =
recorded.number: 4.76

molecule: COc1cccc(C(=O)NC2(C(=O)c3cc(C)cc(C)c3)CCCC2)c1C
limit.operator: =
recorded.number: 1.87

molecule: CCc1ccc(C(=O)NC2(C(=O)c3cc(C)cc(C)c3)CCCCC2)cc1
limit.operator: =
recorded.number: 1.51

molecule: COc1cccc(C(=O)NC(C)(C(=O)c2cccc(C)c2)C(C)C)c1C (stereo not drawn)
limit.operator: =
recorded.number: 8.61

molecule: Cc1cc(C)cc(C(=O)C2(NC(=O)c3ccc4c(c3)COCO4)CCCCC2)c1
limit.operator: =
recorded.number: 6.15
